Molecular target: UniProt:P49840
Experiment: GSK3α TR-FRET kinase assay
Assay type: biochemical
Conditions: 1 nM GSK3α, 4 μM ATP, 30 minute preincubation; read-out: GSK3-A TR-FRET BIOCHEMICAL (TR-FRET); IC50
Protocol: TR-FRET Assay: The assay was performed in a white, 384 well, low volume, flat bottom plate (Grenier). After a 30 minute preincubation in assay buffer with the indicated concentration of compound, the kinase activity was initiated by the addition of the substrates. […] After 60 min at room temperature the plate was read on Envision plate reader using Ex: 340 nm, Em: 615 nm and […]. The normalized 665/615 Signal ratio versus log compound concentration was analyzed by XLFIT to yield IC50 values.
I'd appreciate it if you could supply IC50 values for the items below.

Could you tell me which IC50 is on file for COc1ccc(S(=O)(=O)N2CCC3(CC2)C2=C(CC(C)(C)CC2=O)Nc2n[nH]cc23)c(F)c1 [Compound 947255] ?
≤ 100 nM

Request: CC1(C)CC(=O)C2=C(C1)Nc1n[nH]cc1C21COC2(CCC2)C1 (stereo not shown) [Compound 911973]
100 to 1000 nM

Request: CCC1(c2cccc(C(F)(F)F)c2)C2=C(CCNC2=O)Nc2n[nH]cc21 (stereo not shown) [Compound 870263]
100 to 1000 nM

Request: CC1(C)CC(=O)C2=C(C1)Nc1n[nH]cc1C21CCN(S(=O)(=O)c2ccccc2OC(F)F)CC1 [Compound 945668]
≤ 100 nM

* * *

Molecular target: GSK3α (GST-full length GSK3α) (Homo sapiens (Human))
Sequence (P49840 whole entry): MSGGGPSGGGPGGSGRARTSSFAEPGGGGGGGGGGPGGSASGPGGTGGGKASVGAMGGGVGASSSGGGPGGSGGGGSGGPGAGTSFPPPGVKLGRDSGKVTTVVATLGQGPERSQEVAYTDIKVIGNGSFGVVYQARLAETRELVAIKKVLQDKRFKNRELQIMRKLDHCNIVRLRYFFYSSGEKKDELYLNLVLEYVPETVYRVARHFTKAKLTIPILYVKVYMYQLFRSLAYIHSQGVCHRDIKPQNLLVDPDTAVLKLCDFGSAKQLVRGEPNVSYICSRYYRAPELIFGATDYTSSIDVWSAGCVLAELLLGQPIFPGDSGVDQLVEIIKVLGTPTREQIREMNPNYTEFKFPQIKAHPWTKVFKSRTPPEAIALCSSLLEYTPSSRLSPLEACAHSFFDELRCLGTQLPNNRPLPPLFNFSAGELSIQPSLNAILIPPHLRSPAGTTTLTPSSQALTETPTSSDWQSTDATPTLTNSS
Assay: GSK3α TR-FRET kinase assay
Format: biochemical
Conditions: 1 nM GSK3α, 4 μM ATP, 30 minute preincubation, Table 16; read-out: GSK3-A TR-FRET BIOCHEMICAL (TR-FRET); IC50
Method: TR-FRET Assay: The assay was performed in a white, 384 well, low volume, flat bottom plate (Grenier). After a 30 minute preincubation in assay buffer with the indicated concentration of compound, the kinase activity was initiated by the addition of the substrates. […] After 60 min at room temperature the plate was read on Envision plate reader using Ex: 340 nm, Em: 615 nm and […]. The normalized 665/615 Signal ratio versus log compound concentration was analyzed by XLFIT to yield IC50 values.
pIC50: −log10 of the molar value.
propertyLabel: pIC50

Could you tell me which pIC50 is on file for CC[C@]1(c2cc(-c3ccncc3)ccc2F)C2=C(CC(C)(C)CC2=O)Nc2n[nH]cc21 ?
5.30 to 6.00

Request: CCC1(c2cccc(C(F)(F)F)c2)C2=C(CCN(c3ncn(C)c3C)C2=O)Nc2n[nH]cc21 (stereo not drawn)
6.00 to 7.00

Request: CC[C@]1(c2cccc(-c3ccncc3C)c2)C2=C(CC(C)(C)CC2=O)Nc2n[nH]cc21
≥ 7.00

Request: CC[C@@]1(c2cccc(-c3cnn(-c4ccccc4)c3F)c2)C2=C(CC(C)(C)NC2=O)Nc2n[nH]cc21
< 5.30

Request: CC[C@]1(c2cccc(N3CCCC3)c2)C2=C(CC(C)(C)CC2=O)Nc2n[nH]c(C)c21
6.00 to 7.00

Request: CC[C@]1(c2cccc(C3CCCC3)c2)C2=C(CC(C)(C)CC2=O)Nc2n[nH]cc21
5.30 to 6.00

Request: CCC1(c2cccc(C3CCC3)c2)C2=C(CC(C)(C)CC2=O)Nc2n[nH]cc21 (stereo not drawn)
5.30 to 6.00

Request: CCC1(c2cccc(NS(C)(=O)=O)c2)C2=C(CC(C)(C)CC2=O)Nc2n[nH]cc21 (stereo not drawn) [Compound 913253]
≥ 7.00

Request: CC[C@]1(c2cccc(N3CCCC[C@H]3C)c2)C2=C(CC(C)(C)CC2=O)Nc2n[nH]cc21
< 5.30

Request: CCC1(c2cccc(N3CC(C)C(C)C3)c2)C2=C(CC(C)(C)CC2=O)Nc2n[nH]cc21 (stereo not drawn) [Compound 924504]
6.00 to 7.00

Request: CCC1(c2cccc(-c3ccncc3OC)c2)C2=C(CC(C)(C)CC2=O)Nc2n[nH]cc21 (stereo not drawn)
≥ 7.00

Request: Cc1cccc2c1CC[C@]21C2=C(CC(C)(C)CC2=O)Nc2n[nH]cc21
≥ 7.00

Request: CCC1(c2cccc(N(C)C(=O)Cc3ccccc3)c2)C2=C(CC(C)(C)CC2=O)Nc2n[nH]cc21 (stereo not drawn)
≥ 7.00

Request: CC[C@]1(c2cccc(-c3cc(-c4ccccc4)nn3C(C)C)c2)C2=C(CC(C)(C)NC2=O)Nc2n[nH]cc21
5.30 to 6.00

Request: CC[C@@]1(c2cccc(N(C)C(=O)c3ccn(C)n3)c2)C2=C(CC(C)(C)CC2=O)Nc2n[nH]cc21
< 5.30

Request: CCC1(c2cccc(-c3cc(C(C)C)nn3C)c2)C2=C(CC(C)(C)NC2=O)Nc2n[nH]cc21 (stereo not drawn)
6.00 to 7.00

Request: CN1CCC2(C1)C1=C(CC(C)(C)CC1=O)Nc1n[nH]cc12 (stereo not drawn)
< 5.30

Request: CC[C@]1(C)C2=C(CC(C)(C)CC2=O)Nc2n[nH]cc21 [Compound 884020]
< 5.30

Request: CC1(C)CC(=O)C2=C(C1)Nc1n[nH]cc1[C@@]21CCO[C@@H](C(C)(C)C)C1
5.30 to 6.00

Request: CC[C@]1(c2cccc(-c3cnn(C)c3)c2)C2=C(CC(C)(C)NC2=O)Nc2n[nH]c(C(F)F)c21
6.00 to 7.00

Request: CC(=O)N1CCCC2(CC1)C1=C(CC(C)(C)CC1=O)Nc1n[nH]cc12 (stereo not drawn)
6.00 to 7.00

Request: CCC1(c2cccc(N3CCC3)c2)C2=C(CC(C)(C)CC2=O)Nc2n[nH]cc21 (stereo not drawn)
6.00 to 7.00

Request: CC1(C)CC(=O)C2=C(C1)Nc1n[nH]cc1C21Cc2ccccc21 (stereo not drawn)
6.00 to 7.00

Request: CCC1(c2cccc(-c3cnnc(C)c3)c2)C2=C(CC(C)(C)CC2=O)Nc2n[nH]cc21 (stereo not drawn)
≥ 7.00

Request: Cn1nccc1CN1CC2(C1)C1=C(CC(C)(C)CC1=O)Nc1n[nH]cc12
5.30 to 6.00

Request: CCC1(c2cccc(-c3c(C)nn(C)c3C)c2)C2=C(CC(C)(C)CC2=O)Nc2n[nH]c(C)c21 (stereo not drawn) [Compound 913026]
6.00 to 7.00

Request: C[C@H]1CCC[C@@]12C1=C(CC(C)(C)CC1=O)Nc1n[nH]cc12
5.30 to 6.00

Request: CC[C@]1(c2cccc(-c3cc(C(C)(C)C)nn3C)c2)C2=C(CC(C)(C)NC2=O)Nc2n[nH]cc21
6.00 to 7.00

Request: CC[C@]1(c2cccc(-c3c(C)cnc4c(C)cccc34)c2)C2=C(CC(C)(C)NC2=O)Nc2n[nH]cc21
< 5.30

Request: CCC1(c2cccc(-c3ccnc(C(F)(F)F)c3)c2)C2=C(CC(C)(C)CC2=O)Nc2n[nH]c(C)c21 (stereo not drawn) [Compound 913020]
≥ 7.00

* * *

molecular target: GSK3b (GST-full length GSK3b) (Homo sapiens (Human), UniProt P49841); test: GSK3b TR-FRET kinase assay; type: biochemical; details: 1 nM GSK3b, 2 μM ATP, 30 minute preincubation, Table 16; read-out: GSK3-B TR-FRET BIOCHEMICAL (TR-FRET); IC50
Sequence (P49841 whole entry): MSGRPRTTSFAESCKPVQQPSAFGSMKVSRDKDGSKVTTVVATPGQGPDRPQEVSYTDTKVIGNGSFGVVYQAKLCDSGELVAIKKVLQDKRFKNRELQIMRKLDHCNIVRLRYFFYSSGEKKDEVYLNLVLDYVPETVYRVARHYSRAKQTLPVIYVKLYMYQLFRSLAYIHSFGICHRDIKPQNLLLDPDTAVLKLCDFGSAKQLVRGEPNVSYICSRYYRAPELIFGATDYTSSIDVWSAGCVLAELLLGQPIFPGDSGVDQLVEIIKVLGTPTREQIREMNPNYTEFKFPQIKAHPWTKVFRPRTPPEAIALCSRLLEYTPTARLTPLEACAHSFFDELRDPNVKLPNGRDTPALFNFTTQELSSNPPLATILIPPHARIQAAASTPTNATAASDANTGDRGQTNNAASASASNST
I'd appreciate it if you could supply IC50 values for the items below.

Could you tell me which IC50 is on file for CCC1(c2cccc(-c3cnn(CC4CCOC4)c3)c2)C2=C(CC(C)(C)NC2=O)Nc2n[nH]cc21 (stereo not shown) ?
1000 to 5000 nM

Request: CCC1(c2cccc(-c3cnnc(C)c3)c2)C2=C(CC(C)(C)CC2=O)Nc2n[nH]cc21 (stereo not shown)
100 to 1000 nM

Request: CC[C@]1(c2cccc(-c3cnn(-c4ccncn4)c3)c2)C2=C(CC(C)(C)NC2=O)Nc2n[nH]cc21
1000 to 5000 nM

Request: CCC1(c2cccc(N3CCCc4ncccc43)c2)C2=C(CC(C)(C)CC2=O)Nc2n[nH]cc21 (stereo not shown) [Compound 917079]
1000 to 5000 nM

Request: CCN(c1cccnc1)c1cccc(C2(CC)C3=C(CC(C)(C)CC3=O)Nc3n[nH]cc32)c1 (stereo not shown) [Compound 917088]
≤ 100 nM

Request: CC[C@@]1(c2cccc(S(=O)(=O)C3CC3)c2)C2=C(CC(C)(C)N(C)C2=O)Nc2n[nH]cc21
> 5000 nM

Request: CCC1(c2cccc(-c3cnn(-c4ccccn4)c3)c2)C2=C(CC(C)(C)NC2=O)Nc2n[nH]cc21 (stereo not shown)
1000 to 5000 nM

Value source: patent US20250313563A1
